Where do the numbers come from? From PubChem BioAssay.

Would you kindly list growth inhibition for each of these compounds?
experiment: inhibition of 3D7 malaria parasite growth – strain 3D7 (AID 2306);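 further: 0% = DMSO wells and 100% = chloroquine plus artemisinin control wells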; settings: P. falciparum 3D7 erythrocytic growth, LDH absorbance, 72 h; at 2 µM; stronger effect = higher value
Answer format: numeric, % implied, no suffix.

Look up growth inhibition for this compound: COc1cccc(O)c1CN1CCC2(CCCN(Cc3ccc(F)cc3)C2)C1 (stereo not given) 98

Look up growth inhibition for this compound: `O=C(Nc1ccc(-c2cccc(-c3nc4ccccc4[nH]3)c2)cc1)Nc1ccc(Cl)c(Cl)c1` 101

Look up growth inhibition for this compound: `CS(=O)(=O)NCCCNCc1cccc(-c2cccc(-c3nc4ccc(F)cc4[nH]3)c2)c1` 100

Look up growth inhibition for this compound: `N#Cc1ccc(-c2ccc(C(=O)NCCCCN3CCC(c4cc(Br)c5c(c4OCC(N)=O)CCCC5)CC3)cc2)cc1` 100

Look up growth inhibition for this compound: `NC1=NC2(CCCCC2)N(Cc2ccc(Cl)c(Cl)c2)C(N)=N1` 86
